molecular target: T1, human MSLN-R3-his protein (human, UniProt Q13421 487-598); test: ELISA, coated MSLN-R3
T1 construct: Region 3 of human MSLN, His-tagged; also called human MSLN-R3 protein; hMSLN-R3-his; not shown: His tag
T1 sequence (Q13421 495-606): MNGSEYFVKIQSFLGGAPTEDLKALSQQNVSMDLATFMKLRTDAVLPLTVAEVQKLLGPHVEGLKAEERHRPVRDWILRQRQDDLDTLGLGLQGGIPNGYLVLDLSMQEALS
Measured Endpoint: OD450 at 1 nM (OD450)
Just the number in OD450, nothing appended.

Problem: OD450 at 1 nM lookup needed for S009-F1.2.12 (antibody, human IgG1, kappa, V domains shown) VH: QVQLKQTGPGLVQPSQSLSITCTVSGFSLTNYAVHWVRQSPGKGLEWLGVIWSGGATDYNTVFISRLSISKDNSKSQVFFKVNSLQVDDTAIYYCARTGSGYAMDYWGQGTSVTVSS VL: DIVLTQSPATLSVTPGDRVSLSCRTSHNVNTYLHWYQQKSHESPRLLIKYASQSISEIPSRFSGSGSGTNFTLSINSVETEDFGMYFCHQTNRWPLTFGAGTKLELKR , thanks.
Solution: 0.05

Problem: Input S009-F1.35.24 (antibody, human IgG1, kappa, V domains shown, Human-murine chimeric antibody, human IgG1/kappa constant regions) VH: EVQLQQSEPELVKPGASVRISCKASGYSFTDYYMHWVKQSPENRLEWIGEINPSTGGTSYNPKFKDKATLTVDKSSSTAYMQLKSLTSEESAVYYCTRYHYYGSSSYVMDYWGQGTSVTVSS VL: QIVLTQSPAILSASPGERVTMTCSASSSVYHMHWFQQKSGTSPKRWVYDTSKLASGVPARFSGSGSGTSYSLTISSMEAEDAATYYCQHWRTNPLTFGAGTKLELKR
Solution: 0.05

Problem: Another binder to check: S009-F1.57.1 (antibody, human IgG1, kappa, V domains shown, Human-murine chimeric antibody, human IgG1/kappa constant regions) VH: EAQLQQSGAVFVKPGASVKLSCTASGFSSKDIFLHWVKQRPEQGLEWIGRIDPASDNTIYDPKFQDRATITSDRSSNTAYLQFSSLTSEDTAVYFCLYFDFWGQGTTLTVSS VL: DIVMTQATPSISVTPGESVSISCRSSESLLHSNGNTYLYWFLQRPGQSPQLLIYRMSNLASGVPDRFSVSGSGTAFTLRISRVEAEDVGVYYCMQHLEYPLTFGAGTKLELKR
Solution: 0.86

Problem: How about S009-F1.25.10 (antibody, human IgG1, kappa, V domains shown, Human-murine chimeric antibody, human IgG1/kappa constant regions) VH: EVQLQQSGPELVKPGASLKISCKASGYSFTDYTMNWVKQSHGKNLEWIGLFNPYNGGISYNQKFKGKATLTVDKSSNTAYMELLSLTSDDSAVYFCARDGRGGFYAMDYWGQGTSVTVSS VL: DIQMTQTTSSLSASLGDRVTISCRASQDISIYLNWYQQKPDGPVKLLIYYTSRLHSGVPSRFSGSGSGTDFSLTISNLEQEDIATYFCQQGYTLPPWTFGGGTKLEIKR ?
Solution: 1.44
